Test system: P388 lymphocytic leukemia
experimental protocol: Growth inhibition of tumor cells of P388 lymphocytic leukemia in vitro
Type: cell-based, mouse (CDF1)
condition: Mus musculus, 48 hours at 37° C., read-out: 50% Inhibitory concentration of cell growth (IC50)
endpoint: pIC50
Keep it numeric: pIC50 is minus log10 of the concentration in mol/L.

Completed entries (count: 5):
CC(C(C)N1CC(=O)N(COC(=O)C=Cc2cccc(Cl)c2)C(=O)C1)N1CC(=O)N(COC(=O)C=Cc2cccc(Cl)c2)C(=O)C1 (stereo not drawn); 6.62
C[C@H]([C@H](C)N1CC(=O)N(COC(=O)Cc2ccccc2Cl)C(=O)C1)N1CC(=O)N(COC(=O)Cc2ccccc2Cl)C(=O)C1; 8.07
C[C@H]([C@H](C)N1CC(=O)N(COC(=O)c2ccco2)C(=O)C1)N1CC(=O)NC(=O)C1 (relative stereo); 7.38
C[C@H]([C@H](C)N1CC(=O)N(COC(=O)c2ccccc2)C(=O)C1)N1CC(=O)N(COC(=O)c2ccccc2)C(=O)C1; 6.60
CC(=O)OCN1C(=O)CN([C@H](C)[C@H](C)N2CC(=O)N(COC(C)=O)C(=O)C2)CC1=O; 6.52

Now, please, on to the next compound.
input: Give recorded pIC50 with P388 lymphocytic leukemia for the following compound: C[C@H]([C@H](C)N1CC(=O)N(COC(=O)Cc2ccccc2Cl)C(=O)C1)N1CC(=O)NC(=O)C1 (relative stereo)
output: 8.15

====

experimental protocol: Acute toxicity (LD50)
condition: mouse, in vivo, ip; intraperitoneal, suspended in saline with 1% HPC, observed 14 days
endpoint: LD50 at 336 h

input: Report LD50 at 336 h for Cc1cccc(C(=O)OCN2C(=O)CN([C@@H](C)[C@@H](C)N3CC(=O)NC(=O)C3)CC2=O)c1 (relative stereo) [Sample 14] please.
output: 6.7 to 10 mg/kg

====

Test system: P388 lymphocytic leukemia
experimental protocol: Growth inhibition of tumor cells of P388 lymphocytic leukemia in vitro
Assay type: cell-based, mouse (CDF1)
condition: Mus musculus, 48 hours at 37° C., read-out: 50% Inhibitory concentration of cell growth (IC50)
Below, each of the molecules is paired with its reported log10 of IC50 value.
Please note: log10 values; quantity IC50; unit nM.

Completed entries (count: 5):
C[C@H]([C@H](C)N1CC(=O)N(COC(=O)OCc2ccc([N+](=O)[O-])cc2)C(=O)C1)N1CC(=O)N(COC(=O)OCc2ccc([N+](=O)[O-])cc2)C(=O)C1; 2.18
C[C@H]([C@H](C)N1CC(=O)N(COC(=O)OCc2ccccc2)C(=O)C1)N1CC(=O)NC(=O)C1 (relative stereo); 1.04
C[C@H]([C@H](C)N1CC(=O)N(COC(=O)[C@H](NC(=O)OC(C)(C)C)c2ccccc2)C(=O)C1)N1CC(=O)N(COC(=O)[C@H](NC(=O)OC(C)(C)C)c2ccccc2)C(=O)C1; 1.51
C[C@H]([C@H](C)N1CC(=O)N(COC(=O)COc2ccc(Cl)cc2Cl)C(=O)C1)N1CC(=O)N(COC(=O)COc2ccc(Cl)cc2Cl)C(=O)C1; 1.85
C[C@H]([C@H](C)N1CC(=O)N(COC(=O)OCc2ccccc2)C(=O)C1)N1CC(=O)N(COC(=O)OCc2ccccc2)C(=O)C1; 1.75

Now, please, on to the next molecule.
input: Report log10 of IC50 for C[C@H]([C@H](C)N1CC(=O)N(COC(=O)OCc2ccc([N+](=O)[O-])cc2)C(=O)C1)N1CC(=O)NC(=O)C1 (relative stereo) please.
output: 2.38
